- methodDescription: Validation screen for inhibitors of Lassa infection (AID 463096)
- settings: Lassa virus infection, cell-based; series mostly up to 46.1 µM
Records with an inconclusive call do not appear. Activity calls are given as the source filed them. Calls come from the whole dose curve.
Labels: TRUE (active), FALSE (inactive)

compound | classification
C#CCN[C@H](C)Cc1ccccc1 | FALSE
CC(N)Cc1c[nH]c2ccc(O)cc12 (stereo not drawn) | FALSE
OCc1cnc[nH]1 | FALSE
COc1ccc(OC)c(C(O)C(C)N)c1 (stereo not drawn) | FALSE
NCCc1c[nH]c2ccc(C(N)=O)cc12 | FALSE
Cc1sc2ccccc2c1CC1=NCCN1 | FALSE
COc1cc(CC(C)N)c(OC)cc1I (stereo not drawn) | FALSE
NCC(CP(=O)(O)O)c1ccc(Cl)cc1 (stereo not drawn) | FALSE
NC(N)=Nc1ccc2[nH]c3c(c2c1)C[C@@]1(O)[C@H]2Cc4ccc(O)c5c4[C@@]1(CCN2CC1CC1)[C@H]3O5 | TRUE
Oc1ccc2c3c1O[C@H]1c4oc5ccccc5c4C[C@@]4(O)C(C2)N(CC2CC2)CCC314 (stereo partly drawn) | TRUE
O=S1(=O)N(CCN2CC=C(c3c[nH]c4cc(F)ccc34)CC2)c2cccc3c2N1CCC3 | FALSE
NCCCP(=O)(O)O | FALSE
O=C1C=CC(=O)C=C1 | FALSE

Ref: PubChem BioAssay (NCATS)
